These entries and their values trace back to ChEMBL document CHEMBL3576836.

# METHOD NOTES: Inhibition of Streptococcus mutans OMZ65 recombinant sortase A delta-40 mutant using Dabcyl-QALPETGEE-Edans as substrate after 1 hr by fluorescence spectrophotometry
Assign pIC50 to each entry below.
Answers are plain numbers, as −log10 of the molar value.

These solved cases illustrate the format of a correct answer.
COMPOUND: CC(C)(O)[C@H]1Oc2cc3oc4c5ccc(O)cc5oc(=O)c4c3cc2[C@@H]1O
MEASUREMENT LABEL: pIC50
READING: 3.92
//
COMPOUND: CC1(C)Oc2ccc(-c3coc4cc(O)ccc4c3=O)cc2C[C@@H]1O
MEASUREMENT LABEL: pIC50
READING: 3.63
//
COMPOUND: CC(C)=CCc1cc(-c2coc3cc(O)cc(O)c3c2=O)ccc1O [CORYLIN]
MEASUREMENT LABEL: pIC50
READING: 3.57

Please supply pIC50 for each of the following items, keeping them in order.
1. CC(C)(O)[C@H]1Cc2c(ccc3c2O/C(=C\c2ccc(O)c(O)c2)C3=O)O1
2. CC(C)(O)[C@@H]1Cc2cc3c(cc2O1)oc1c2ccc(O)cc2oc(=O)c31
3. CC(C)=CCc1cc(-c2coc3cc(O)ccc3c2=O)ccc1O [NEOBAVAISOFLAVONE]
4. O=Cc1ccc(O)c(O)c1 [PROTOCATECHUALDEHYDE]
5. O=c1ccc2cc3ccoc3cc2o1 [PSORALEN]
6. CC(C)(O)c1cc2c3c(ccc2o1)C(=O)C[C@@H](c1ccc(O)cc1)O3

# output
3.68
3.86
3.55
3.29
3.48
3.87
